Lab note: HepSE_hepatitis readings collected with Hepatotoxicity for the following molecules.
value_kind: HepSE_hepatitis

INSERT INTO assay_data (molecule, value_kind, readout_value) VALUES
  ('CNC1(c2ccccc2Cl)CCCCC1=O (stereo unspecified)', 'HepSE_hepatitis', 0),
  ('CNC(=O)c1cc(Oc2ccc(NC(=O)Nc3ccc(Cl)c(C(F)(F)F)c3)cc2)ccn1', 'HepSE_hepatitis', 0),
  ('O=NN(CCCl)C(=O)NCCCl', 'HepSE_hepatitis', 0),
  ('CCCCC[C@H](O)/C=C/[C@H]1[C@H](O)CC(=O)[C@@H]1CCCCCCC(=O)O', 'HepSE_hepatitis', 0),
  ('C[C@@H]1C[C@H]2[C@@H]3CCC4=CC(=O)C=C[C@]4(C)[C@@]3(F)[C@@H](O)C[C@]2(C)[C@H]1C(=O)CO', 'HepSE_hepatitis', 0),
  ('N[C@@H](Cc1cc(I)c(Oc2cc(I)c(O)c(I)c2)c(I)c1)C(=O)O', 'HepSE_hepatitis', 0);

----------
Reported HepSE_jaundice values, Hepatotoxicity.
value_kind: HepSE_jaundice

INSERT INTO assay_data (compound, readout_value) VALUES
  ('COc1cc(NS(C)(=O)=O)ccc1Nc1c2ccccc2nc2ccccc12', 1),
  ('O=C1CCC(N2C(=O)c3ccccc3C2=O)C(=O)N1 (stereo unspecified) [THALIDOMIDE]', 1),
  ('CC(C(=O)O)c1ccc(-c2ccccc2)c(F)c1 (stereo unspecified)', 1),
  ('C[n+]1ccccc1/C=N/O', 0),
  ('Cc1ccc(C(=O)c2ccc(CC(=O)O)n2C)cc1', 0),
  ('CN(N=O)C(=O)N[C@@H](C=O)[C@@H](O)[C@H](O)[C@H](O)CO', 0);

----------
Where a SMILES comes first, the peptide text is derived from it. Bridges are numbered along the chain shown (N, C = ends). [ ]: non-standard residue; d: D form. The star is where a group is joined. Ileψ(thiazoline)Cys = CC[C@H](C)[C@H](N)C1=N[C@H](C(=O)*)CS1; dOrn = NCCC[C@@H](N)C(=O)O
HepSE_Combined Scores data for Hepatotoxicity follow.
value_kind: HepSE_Combined Scores

INSERT INTO assay_data (compound, system_tested, value_kind, readout_value) VALUES
  ('Oc1ccc2c(c1)[C@@]13CCCC[C@@]1(O)[C@@H](C2)N(CC1CCC1)CC3 [BUTORPHANOL]', 'Hepatotoxicity', 'HepSE_Combined Scores', 0),
  ('O=NN(CCCl)C(=O)NC1CCCCC1 [LOMUSTINE]', 'Hepatotoxicity', 'HepSE_Combined Scores', 0),
  ('CCCCC(=O)N(Cc1ccc(-c2ccccc2-c2nnn[nH]2)cc1)[C@H](C(=O)O)C(C)C', 'Hepatotoxicity', 'HepSE_Combined Scores', 1),
  ('CC(C)(O)c1ccccc1CC[C@@H](SCC1(CC(=O)O)CC1)c1cccc(/C=C/c2ccc3ccc(Cl)cc3n2)c1 [MONTELUKAST]', 'Hepatotoxicity', 'HepSE_Combined Scores', 2),
  ('Nc1nnc(-c2cccc(Cl)c2Cl)c(N)n1 [LAMOTRIGINE]', 'Hepatotoxicity', 'HepSE_Combined Scores', 3),
  ('CCN(CC)CCOC(=O)c1ccc(N)cc1 [PROCAINE]', 'Hepatotoxicity', 'HepSE_Combined Scores', 0),
  ('CN(C)CCc1c[nH]c2ccc(Cn3cncn3)cc12 [RIZATRIPTAN]', 'Hepatotoxicity', 'HepSE_Combined Scores', 0),
  ('CC1=C(C(=O)O)N2C(=O)[C@@H](NC(=O)[C@H](N)C3=CCC=CC3)[C@H]2SC1 [CEPHRADINE]', 'Hepatotoxicity', 'HepSE_Combined Scores', 0),
  ('C[N+](C)(C)CCO.Cn1c(=O)c2[n-]cnc2n(C)c1=O [OXTRIPHYLLINE]', 'Hepatotoxicity', 'HepSE_Combined Scores', 0),
  ('CCN(CC)C(=O)/C(C#N)=C/c1cc(O)c(O)c([N+](=O)[O-])c1 [ENTACAPONE]', 'Hepatotoxicity', 'HepSE_Combined Scores', 5),
  ('CNC1(c2ccccc2Cl)CCCCC1=O (stereo not given) [KETAMINE]', 'Hepatotoxicity', 'HepSE_Combined Scores', 0),
  ('CC[C@H](C)[C@H](N)C1=N[C@H](C(=O)N[C@@H](CC(C)C)C(=O)N[C@H](CCC(=O)O)C(=O)N[C@H](C(=O)N[C@H]2CCCCNC(=O)[C@H](CC(N)=O)NC(=O)[C@@H](CC(=O)O)NC(=O)[C@H](Cc3cnc[nH]3)NC(=O)[C@@H](Cc3ccccc3)NC(=O)[C@H]([C@@H](C)CC)NC(=O)[C@@H](CCCN)NC2=O)[C@@H](C)CC)CS1 [BACITRACIN] ({Ileψ(thiazoline)Cys}-L[dE]IK[dOrn]I[dF]H[dD]N; lactam 4-C)', 'Hepatotoxicity', 'HepSE_Combined Scores', 0),
  ('CCOc1cc(CC(=O)N[C@@H](CC(C)C)c2ccccc2N2CCCCC2)ccc1C(=O)O [REPAGLINIDE]', 'Hepatotoxicity', 'HepSE_Combined Scores', 2),
  ('Cc1cc(C(=O)NNCc2ccccc2)no1 [ISOCARBOXAZID]', 'Hepatotoxicity', 'HepSE_Combined Scores', 0),
  ('CCCC(C)(COC(N)=O)COC(N)=O [MEPROBAMATE]', 'Hepatotoxicity', 'HepSE_Combined Scores', 0),
  ('CN1CCN(C2=Nc3cc(Cl)ccc3Nc3ccccc32)CC1 [CLOZAPINE]', 'Hepatotoxicity', 'HepSE_Combined Scores', 2),
  ('OCCN1CCN(CCCN2c3ccccc3Sc3ccc(Cl)cc32)CC1 [PERPHENAZINE]', 'Hepatotoxicity', 'HepSE_Combined Scores', 1),
  ('CCOC(=O)C1(c2ccccc2)CCN(C)CC1 [MEPERIDINE]', 'Hepatotoxicity', 'HepSE_Combined Scores', 0),
  ('C=CC[C@@H]1/C=C(\C)C[C@H](C)C[C@H](OC)[C@H]2O[C@@](O)(C(=O)C(=O)N3CCCC[C@H]3C(=O)O[C@H](/C(C)=C/[C@@H]3CC[C@@H](O)[C@H](OC)C3)[C@H](C)[C@@H](O)CC1=O)[C@H](C)C[C@@H]2OC [TACROLIMUS ANHYDROUS]', 'Hepatotoxicity', 'HepSE_Combined Scores', 7),
  ('NC1=NC(=O)C(c2ccccc2)O1 (stereo not given) [PEMOLINE]', 'Hepatotoxicity', 'HepSE_Combined Scores', 2),
  ('CCCC(C)(COC(N)=O)COC(=O)NC(C)C (stereo not given) [CARISOPRODOL]', 'Hepatotoxicity', 'HepSE_Combined Scores', 0),
  ('CCOC(=O)C1=C(C)NC(C)=C(C(=O)OC)C1c1cccc(Cl)c1Cl (stereo not given) [FELODIPINE]', 'Hepatotoxicity', 'HepSE_Combined Scores', 1),
  ('CCCCCCCCCCC[C@@H](C[C@@H]1OC(=O)[C@H]1CCCCCC)OC(=O)[C@H](CC(C)C)NC=O [ORLISTAT]', 'Hepatotoxicity', 'HepSE_Combined Scores', 1),
  ('O=C(O[C@@H]1C[C@@H]2C[C@H]3C[C@H](C1)N2CC3=O)c1c[nH]c2ccccc12 [DOLASETRON]', 'Hepatotoxicity', 'HepSE_Combined Scores', 2),
  ('O=C(O)CCNC(=O)c1ccc(/N=N/c2ccc(O)c(C(=O)O)c2)cc1 [BALSALAZIDE]', 'Hepatotoxicity', 'HepSE_Combined Scores', 5);

----------
tested on: Hepatotoxicity
value_kind: HepSE_hepatitis

INSERT INTO results (compound, system_tested, value_kind, readout_value) VALUES
  ('CC(=O)OCC(CCn1cnc2cnc(N)nc21)COC(C)=O [FAMCICLOVIR]', 'Hepatotoxicity', 'HepSE_hepatitis', 0),
  ('CC(C(=O)O)c1ccc(C(=O)c2cccs2)cc1 (centres undefined) [SUPROFEN]', 'Hepatotoxicity', 'HepSE_hepatitis', 0),
  ('Nc1cc(-c2ccncc2)c[nH]c1=O [INAMRINONE]', 'Hepatotoxicity', 'HepSE_hepatitis', 0),
  ('Cc1[nH]cnc1CN1CCc2c(c3ccccc3n2C)C1=O [ALOSETRON]', 'Hepatotoxicity', 'HepSE_hepatitis', 1);

----------
tested on: Hepatotoxicity; settings: Liver
Reported HepSE_Combined Scores by item:
value_kind: HepSE_Combined Scores

INSERT INTO results (compound, system_tested, readout_value) VALUES
  ('CN1C(=O)CN=C(c2ccccc2)c2cc(Cl)ccc21', 'Hepatotoxicity', 1),
  ('CC(=O)[C@@]1(O)CC[C@H]2[C@@H]3C[C@H](C)C4=CC(=O)CC[C@]4(C)[C@H]3CC[C@@]21C', 'Hepatotoxicity', 5),
  ('CN1CC[C@]23c4c5ccc(O)c4O[C@H]2[C@@H](O)C=C[C@H]3[C@H]1C5', 'Hepatotoxicity', 1),
  ('OCC(S)CS (stereo not given)', 'Hepatotoxicity', 0),
  ('COc1cc(Br)c(C[N+]2(CCOCCC3CCC4CC3C4(C)C)CCOCC2)cc1OC.[Br-] (stereo not given) [PINAVERIUM BROMIDE]', 'Hepatotoxicity', 0),
  ('CNCCC=C1c2ccccc2CCc2ccccc21', 'Hepatotoxicity', 3),
  ('CC[C@H]1OC(=O)[C@H](C)C(=O)[C@H](C)[C@@H](O[C@@H]2O[C@H](C)C[C@H](N(C)C)[C@H]2O)[C@](C)(OC)C[C@@H](C)C(=O)[C@H](C)[C@H]2N(CCCCn3cnc(-c4cccnc4)c3)C(=O)O[C@]12C', 'Hepatotoxicity', 5),
  ('CN(C/C=C/c1ccccc1)Cc1cccc2ccccc12', 'Hepatotoxicity', 0),
  ('O=P1(N(CCCl)CCCl)NCCCO1 (stereo not given) [CYCLOPHOSPHAMIDE ANHYDROUS]', 'Hepatotoxicity', 3),
  ('O=C(O)Cc1ccccc1Nc1c(Cl)cccc1Cl', 'Hepatotoxicity', 5),
  ('Sc1ncnc2nc[nH]c12 [MERCAPTOPURINE ANHYDROUS]', 'Hepatotoxicity', 0),
  ('Cc1cccc(Nc2ccccc2C(=O)O)c1C', 'Hepatotoxicity', 3),
  ('CCCN[C@H]1CCc2nc(N)sc2C1 [PRAMIPEXOLE]', 'Hepatotoxicity', 2),
  ('Nc1ccc(S(N)(=O)=O)cc1 [SULFANILAMIDE]', 'Hepatotoxicity', 0),
  ('CC(C)c1c(C(=O)Nc2ccccc2)c(-c2ccccc2)c(-c2ccc(F)cc2)n1CC[C@@H](O)C[C@@H](O)CC(=O)O', 'Hepatotoxicity', 3),
  ('CCn1cc(C(=O)O)c(=O)c2cc(F)c(N3CCNCC3)cc21', 'Hepatotoxicity', 5),
  ('NCCCNCCSP(=O)(O)O', 'Hepatotoxicity', 0),
  ('COc1cc([C@@H]2c3cc4c(cc3[C@@H](O[C@@H]3O[C@@H]5CO[C@@H](C)O[C@H]5[C@H](O)[C@H]3O)[C@H]3COC(=O)[C@H]23)OCO4)cc(OC)c1O [ETOPOSIDE]', 'Hepatotoxicity', 0),
  ('CC1=C(/C=C/C(C)=C/C=C/C(C)=C/CO)C(C)(C)CCC1', 'Hepatotoxicity', 0),
  ('CC(C)c1cccc(C(C)C)c1O', 'Hepatotoxicity', 1),
  ('Brc1c(NC2=NCCN2)ccc2nccnc12', 'Hepatotoxicity', 0),
  ('CC(C)NCC(O)c1ccc(O)c(O)c1 (stereo not given)', 'Hepatotoxicity', 0),
  ('COc1cc(Cc2cnc(N)nc2N)cc(OC)c1OC', 'Hepatotoxicity', 1),
  ('NNCCc1ccccc1', 'Hepatotoxicity', 1),
  ('CN(C)C(=N)N=C(N)N', 'Hepatotoxicity', 2),
  ('Clc1ccccc1CN1CCc2sccc2C1', 'Hepatotoxicity', 4),
  ('CC(=O)O[C@H]1C[C@@H]2CC[C@@H]3[C@H](CC[C@@]4(C)[C@H]3C[C@H]([N+]3(C)CCCCC3)[C@@H]4OC(C)=O)[C@@]2(C)C[C@@H]1[N+]1(C)CCCCC1', 'Hepatotoxicity', 0),
  ('CC(C)n1c(/C=C/C(O)CC(O)CC(=O)O)c(-c2ccc(F)cc2)c2ccccc21 (stereo not given)', 'Hepatotoxicity', 4),
  ('OC(Cn1cncn1)(Cn1cncn1)c1ccc(F)cc1F', 'Hepatotoxicity', 4),
  ('CCc1cc(C(N)=S)ccn1 [ETHIONAMIDE]', 'Hepatotoxicity', 2),
  ('Cc1ccc(-c2cc(C(F)(F)F)nn2-c2ccc(S(N)(=O)=O)cc2)cc1', 'Hepatotoxicity', 5),
  ('CC(C)C[C@H](NC(=O)[C@H](Cc1ccccc1)NC(=O)c1cnccn1)B(O)O', 'Hepatotoxicity', 3),
  ('Clc1ccc2nsnc2c1NC1=NCCN1', 'Hepatotoxicity', 8),
  ('NC(N)=Nc1nc(CSCCC(N)=NS(N)(=O)=O)cs1', 'Hepatotoxicity', 1),
  ('COc1ccc2c3c1O[C@H]1C(=O)CC[C@@]4(O)[C@@H](C2)N(C)CC[C@]314', 'Hepatotoxicity', 1);
